Listed next: entries and their corresponding Binding Score.
- SYSTEM_NAME: T1, Soluble CD28-Ig (human, UniProt P10747 19-152, biotin-conjugated (NHS-biotin) in the labelled-ligand FACS assays)
- T1 construct: extracellular domain; Bought from R&D Systems; also called sCD28-Ig; CD28-Ig Fc; not shown: Fc portion of human IgG1
- ASSAY_REMARKS: two-colour FACS profile on transfected cells; score of preference for CD28-Ig over CTLA-4-Ig vs WT hB7-1
Keep it simple and answer with nothing but the number.

Example entries and their recorded answers appear below.
BINDER	RESULT_VALUE
Round 2 CD28D2-3 (ligand) ITPKSVTKRVKETVMLSCDYNTSTEELTSLRIYWQKDSKMVLAILPGKVQVWPEYKNRTITDMNDNPRIVIQALRLSDSGTYTCVIQKPVLKGAYKLEHLASVRLMIRADFPVPTDLGNPSPNIRRLICSTSGGFPRPHLYWLENGEELNATNTTVSQDPGTELYMISSELDFNVTNNHSIVCLIKYGELSVSQIFPWSKPKQEPPIDQLPFWVIIPVSGALVLTAVVLYCLACRHVARWKRTRRNEETVGTERLSPIYLGSAQSSG	1
Round 2 CD28BP-8 (ligand, also called clone CD28BP-8) ITPKSVTKRVKETVMLSCDYNTSTEELTSLRIYWQKDSKMVLAILPGKVQVWPEYKNRTITDMNDNPRIVILALRLSDSGTYTCVIQKPVLKGAYKLEHLASVRLMIRADFPVPSITDIGHPAPNVKRIRCSASGGFPEPRLAWMEDGEELNAVNTTVDQDLDTELYSVSSELDSNVTNNHSIVCLIKYGELSVSQIFPWSKPKQEPPIDQLPFWVIIPVSGALVLTAVVLYCLACRHVARWKRTRRNEETVGTERLSPIYLGSAQSSG	2
Round 2 CD28A8-6 (ligand) SGITPKSVTKRVKETVMPSCDYSTSTEELTSLRIYWQKDSKMVLAILPGKVQVWPEYKNRTITDMNDNPRIVILALRLSDSGTYTCVVQKNENGSFRREHLTSVTLSIRADFPVPSITDIGHPAPNVKRIRCSASGGFPEPRLAWMEDGEELNAVNTTVDQDLDTELYSVSSELDFNVTNNHSIVCLIKYGELSVSQIFPWSKPKQEPPIDQLPFWVIIPVSGALVLTAVVLYCLACRHVARWKRTRRNEETVGTERLSPIYLGSAQSSG	1

Here is another binder to look at.
Prompt line: Quick one: Binding Score of Round 2 CD28D5-6 (ligand) ITPKSVTKRVKETVMLSCDYSTSTEELTSLRIYWQKDSKMVLAILPGKVQVWPEYKNRTITDMNDNPRIVILALRLSDSGTYTCVIQKPVLKGAYKLEHLTSVRLMIRADFPVPTINDLGNPSPNIRRLICSTSGGFPRPHLYWLENGEELNATNTTLSQDPETKLYMISSELDFNMTSNHSFLCLVKYGDLTVSQSFYWQESKPTPSANQHLTWTIIIPVSAFGISVIIAVILTCLTCRNAAIRRQRRENEVEMQSCSQSP ?
Response line: 0
